- tested target: Alkaline phosphatase, placental type (Homo sapiens) (UniProt P05187)
- Sequence (P05187 whole entry, looked up): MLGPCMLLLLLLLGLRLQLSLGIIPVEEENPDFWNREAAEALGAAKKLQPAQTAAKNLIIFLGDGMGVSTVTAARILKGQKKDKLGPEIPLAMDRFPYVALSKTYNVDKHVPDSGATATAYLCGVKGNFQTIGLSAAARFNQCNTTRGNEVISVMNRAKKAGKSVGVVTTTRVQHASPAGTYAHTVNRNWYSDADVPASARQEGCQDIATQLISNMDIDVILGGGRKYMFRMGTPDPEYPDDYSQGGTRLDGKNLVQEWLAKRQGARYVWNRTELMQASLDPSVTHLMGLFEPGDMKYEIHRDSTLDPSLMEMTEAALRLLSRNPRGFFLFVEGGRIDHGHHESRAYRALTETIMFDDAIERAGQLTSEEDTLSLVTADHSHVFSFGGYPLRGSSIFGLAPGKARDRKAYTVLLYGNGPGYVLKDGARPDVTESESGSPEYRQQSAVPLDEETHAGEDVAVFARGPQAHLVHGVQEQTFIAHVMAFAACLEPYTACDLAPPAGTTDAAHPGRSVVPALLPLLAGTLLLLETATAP
- assay name: activation of placental alkaline phosphatase – biochemical, uHTS hits, luminescence, selectivity assay for human IAP activator project, dose response (AID 488888)
- assay context: purified PLAP, CDP-Star luminescence, 30 min
Active and inactive are the calls of the source.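 Rule for the calls: active = mean EC50, the dose giving half of full activation, below a set limit (actives reach about 84 µM in these data); inactive = the rest.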
measured quantity: EC50

-- ask # get_value(readout='EC50', item= O=C(NNC(=S)NC(=O)c1ccccc1[N+](=O)[O-])c1ccccc1O )
-- reply 10.5 µM

-- ask Any idea what EC50 was measured for CC(C)CC(=O)NC(=S)NNC(=O)c1ccc(NC(=O)C2CCCCC2)cc1 ?
-- reply 61.6 µM

-- ask Which value of EC50 has been reported for C[C@@H](NC(=O)c1[nH]cnc1C(=O)Nc1ccon1)c1ccccc1 in the records?
-- reply 19.8 µM

-- ask Dear colleague, I am looking for the recorded EC50 of the following compound: O=C(CCCCC(=O)NNC(=O)COc1ccccc1)NNC(=O)COc1ccccc1
-- reply 12 µM

-- ask So what's the measured EC50 for this one? Cc1ccc(O)c(/C=N/NC(=O)c2[nH]ncc2Br)c1
-- reply 75.5 µM

-- ask Name the reported EC50 value associated with the compound Cc1cccc(-n2ncc3c(NNC(=O)c4ccco4)ncnc32)c1
-- reply 9.19 µM

-- ask What measured EC50 goes with CCN(CC)c1ccc(/C=N/NC(=O)c2nnn(-c3nonc3N)c2C(C)C)c(O)c1 ?
-- reply 73.7 µM

-- ask What value of EC50 has been reported for the following compound? O=c1cc(-c2ccccc2)[nH]n1-c1nc2ccccc2[nH]1
-- reply 15.2 µM

-- ask Which EC50 value belongs to COc1cc(NC(=O)NCC2CCN(Cc3ccccc3Cl)CC2)cc(OC)c1OC ?
-- reply 64.2 µM

-- ask Param item = Cc1cc(OCC(=O)Nc2ncn[nH]2)ccc1Cl ; retrieve measured EC50.
-- reply 17 µM

-- ask Form field: reported EC50 of CCc1ccc(/C=N/Nc2ncnc3nc[nH]c23)cc1
-- reply 13.4 µM

-- ask Bench note: what EC50 did CCn1c(C)nc2cc(C(=O)N/N=C/c3cccc(O)c3O)ccc21 show?
-- reply 10.9 µM

-- ask Can you look up the measured EC50 of O=C(O)c1ccccc1C(=O)Nc1cc(-c2ccccc2)[nH]n1 for me?
-- reply > 100 µM (inactive)

-- ask Any idea what EC50 was measured for O=C(CCN1C(=O)/C(=C/c2ccccc2Cl)SC1=S)NNC(=O)c1ccccc1O ?
-- reply 25.3 µM

-- ask Which EC50 reading was recorded for the compound O=C(N/N=C/c1c(O)ccc2ccccc12)c1[nH]ncc1Br ?
-- reply 11 µM

-- ask Consider the compound shown here: Cc1nn(C)c(C(=O)NNC(=S)NCc2ccccc2)c1Cl What is its recorded EC50?
-- reply 18.6 µM

###

Consider the following compounds; for each one, report its EC50.
- tested target: Alkaline phosphatase, placental type (Homo sapiens)
- assay name: activation of placental alkaline phosphatase – biochemical, uHTS hits, luminescence, selectivity assay for human IAP activator project, dose response (AID 488888)
- assay context: purified PLAP, CDP-Star luminescence, 30 min
Activity calls are given as the source filed them.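 How the source made its calls: active means mean EC50, the dose giving half of full activation, below a set limit (actives reach about 84 µM in these data); inactive means the rest.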

-- ask # query: EC50 of entry COc1ccccc1N(C)S(=O)(=O)c1ccc(Cl)c(C(=O)NNC(=O)c2ccccc2O)c1
-- reply 19.5 µM

-- ask // lookup EC50 for C=CCN1C(=O)C2(NNc3ccccc3O2)c2ccccc21 (configuration not stated)
-- reply 0.718 µM

-- ask Fill blank: measured EC50 of the compound CCn1c(C)nc2cc(C(=O)NNC(=S)Nc3ccccc3)ccc21 is ____.
-- reply 14.7 µM

-- ask Which value of EC50 has been reported for Cc1nc2c3ccccc3nc(NNC(=O)CCC(=O)N3CCCC(C)C3)n2n1 (configuration not stated) in the records?
-- reply 13.5 µM

-- ask Field request: EC50 | item: Cc1nc2c3ccccc3nc(NNC(=O)CCC(=O)NCCC(C)C)n2n1
-- reply 13.9 µM

-- ask What does the data say about its EC50? Entry: CN(C)S(=O)(=O)c1cccc(NC(=S)NNC(=O)c2cc3ccccc3cc2O)c1
-- reply 13.5 µM

-- ask Value lookup for EC50; key = C=CCn1c(O)c(N=Nc2ccccc2O)c2ccccc21
-- reply 0.663 µM

-- ask Look up EC50 for this compound: CCOc1cccc(-c2nc(C(N)=O)c3[nH]c(=O)n(-c4cccc(Cl)c4)c3n2)c1O
-- reply 1.91 µM

-- ask Any idea what its EC50 is? The compound is O=C(/C=C/c1cccs1)NC(=S)NNC(=O)c1ccccc1O
-- reply 12.7 µM

-- ask // query EC50 value for entry COc1ccc(OC)c(NC(=O)c2cc(-c3cc(C)ccc3O)n[nH]2)c1
-- reply 23.1 µM

-- ask Fill in: EC50 of Cc1cccc(CC(Cc2nc3ccccc3[nH]2)c2nc3ccccc3[nH]2)c1 (configuration not stated) is ___
-- reply 60.8 µM

-- ask I have this compound here, O=C(O)C1OC(Oc2c(-c3ccc(O)c(O)c3)oc3cc(O)cc(O)c3c2=O)C(O)C(O)C1O (configuration not stated) , and I need its recorded EC50.
-- reply > 100 µM (inactive)

-- ask Fill in the blank: the reported EC50 of O=C(NNC(=S)NC1CCCCC1)c1ccccc1Br is ____.
-- reply 16.4 µM

-- ask Can you look up the measured EC50 of Cc1cc(C)cc(CC(Cc2nc3ccccc3[nH]2)c2nc3ccccc3[nH]2)c1 (configuration not stated) for me?
-- reply 82.7 µM

-- ask Look at this compound and give its reported EC50. Cc1cccc(NS(=O)(=O)c2cccc(C(=O)NNC(=O)c3ccccc3O)c2)c1
-- reply 42.3 µM

-- ask Fill in: EC50 of Cc1ccccc1CN1CCC(n2nccc2NC(=O)CCCc2ccccc2)CC1 is ___
-- reply 75.2 µM

-- ask Quick check: EC50 of c1ccc(-c2cccc(-c3ccccn3)n2)nc1 ?
-- reply 27.1 µM

-- ask Entry COc1cc(NC(=O)NCC2CCN(Cc3ccccc3C)CC2)cc(OC)c1OC : reported EC50 = ?
-- reply 78.9 µM

-- ask Which measured EC50 value corresponds to CSCCC(NS(=O)(=O)c1ccc(C)cc1)C(=O)NNC(=O)c1csc(N2CCOCC2)n1 (configuration not stated) ?
-- reply 16.1 µM

-- ask Quick one: EC50 of COc1cc(OC)cc(C(=O)NNC(=O)c2nn(C)c(=O)c3ccccc23)c1 ?
-- reply 13.9 µM

-- ask What does the record list as EC50 for CC(C)Oc1ccc(CCC(=O)NNC(=S)NCc2ccccc2)cc1 ?
-- reply 21.2 µM

-- ask # query: EC50 of entry Cc1cc(=O)[nH]c(-n2[nH]c3c(c2=O)CCCC3)n1
-- reply 13.6 µM
